Could you please report measured pEC50 for the items listed next?
ASSAYED_SYSTEM: PTK2-phosphorylation at tyrosine 397 (pY397) (Homo sapiens, UniProt Q05397)
Construct: endogenous in cells
Sequence (Q05397 whole entry): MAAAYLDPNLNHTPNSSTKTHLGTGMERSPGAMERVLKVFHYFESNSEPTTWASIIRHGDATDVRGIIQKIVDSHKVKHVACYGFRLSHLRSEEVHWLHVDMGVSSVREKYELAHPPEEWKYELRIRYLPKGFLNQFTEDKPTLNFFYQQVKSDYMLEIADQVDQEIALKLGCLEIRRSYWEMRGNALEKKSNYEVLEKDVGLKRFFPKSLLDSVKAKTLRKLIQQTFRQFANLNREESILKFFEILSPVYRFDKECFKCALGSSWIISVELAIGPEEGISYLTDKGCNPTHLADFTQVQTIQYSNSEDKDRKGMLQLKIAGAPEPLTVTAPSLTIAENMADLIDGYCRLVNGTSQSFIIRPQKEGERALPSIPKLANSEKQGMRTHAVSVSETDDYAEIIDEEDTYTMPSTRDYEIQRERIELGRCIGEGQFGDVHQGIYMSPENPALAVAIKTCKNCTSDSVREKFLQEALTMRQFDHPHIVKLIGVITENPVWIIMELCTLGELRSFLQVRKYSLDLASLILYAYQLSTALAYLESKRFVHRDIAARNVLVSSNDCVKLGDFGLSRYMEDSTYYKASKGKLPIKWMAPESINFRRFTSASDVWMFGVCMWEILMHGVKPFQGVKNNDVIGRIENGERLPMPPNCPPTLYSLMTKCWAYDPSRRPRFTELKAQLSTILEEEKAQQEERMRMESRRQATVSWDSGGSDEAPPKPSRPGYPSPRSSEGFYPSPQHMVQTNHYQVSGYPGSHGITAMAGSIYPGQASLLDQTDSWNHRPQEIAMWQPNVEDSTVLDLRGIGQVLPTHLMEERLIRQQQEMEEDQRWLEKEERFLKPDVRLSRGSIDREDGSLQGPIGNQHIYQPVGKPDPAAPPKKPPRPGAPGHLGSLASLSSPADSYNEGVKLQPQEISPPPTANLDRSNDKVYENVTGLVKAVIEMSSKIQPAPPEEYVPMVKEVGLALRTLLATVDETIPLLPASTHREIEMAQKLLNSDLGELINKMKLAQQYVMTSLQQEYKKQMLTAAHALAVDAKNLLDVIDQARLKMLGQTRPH
EXPERIMENT: Phospho-PTK2 (pY397) Assay in PC-3 cells
RECORDED_CONDITIONS: PC-3 prostate carcinoma cells, 2 h incubation; read-out: PC3pPTK2 Y397 EC50
Description: This cellular test is used to determine the influence of PTK2-inhibitors on the state of the PTK2-phosphorylation at tyrosine 397 (pY397). PC-3 cells (prostate carcinoma, ATCC CRL-1435) are grown in cell culture flasks (175 cm^2) with F12 Kaighn's Medium (Gibco, No.: 21127) with the addition of 10% foetal calf serum (Invitrogen, No.: 16000-044). The cultures are incubated in the incubator at 37° C. and 5% CO2 and run twice a week. […]
Note on pEC50: it is the negative log10 of concentration, concentration in mol/L.

Sample COc1cc(C(=O)N[C@@H]2CCCN(CC3CC3)C2)ccc1Nc1ncc(C(F)(F)F)c(NCc2ccc(C)cc2N(C)S(C)(=O)=O)n1 [Example 85] ; pEC50 observed: 9.00

Sample COc1cc(C(=O)NC2CCN(C3CCOCC3)CC2)ccc1Nc1ncc(C(F)(F)F)c(NCc2ccc(C)cc2N(C)S(C)(=O)=O)n1 [Example 44] ; pEC50 observed: 9.38

Sample COc1cc(C(=O)NC2CCC3C(CCN3C)C2)ccc1Nc1ncc(C(F)(F)F)c(NCc2ccc(C)cc2N(C)S(C)(=O)=O)n1 (stereo not drawn) [Example 26] ; pEC50 observed: 9.60

Sample COc1cc(C(=O)N[C@H]2CCN(C)C[C@H]2F)c(F)cc1Nc1ncc(C(F)(F)F)c(NCc2ccc(C)cc2N(C)S(C)(=O)=O)n1 [Example 22] ; pEC50 observed: 9.66

Sample COc1cc(CNC2CCCCC2)ccc1Nc1ncc(C(F)(F)F)c(NCc2ccc(C)cc2N(C)S(C)(=O)=O)n1 [Example 109] ; pEC50 observed: 8.70

Sample COc1cc(C(=O)NC2CCOCC2)ccc1Nc1ncc(C(F)(F)F)c(NCc2ccc(C)cc2N(C)S(C)(=O)=O)n1 [Example 60] ; pEC50 observed: 9.22
